Assay: yeast display, Sf9 membrane polyspecificity reagent, FACS + sequencing; frameworks hold sequencing errors
PROPERTY: polyreactivity (PSR sort gate)

# count of solved cases: 5
RECORD_SEQUENCE	polyreactivity (PSR sort gate)
QVQLVESGGGLVQAGGSLRLSCAASGRTFSYYALGWYRQAPGKERELVATISYSTGNTNYADSVKGRFTISRDNAKNTVYLQMNSLKPEDTAVYYCAADFSPFVGETYWKYDYWGQGTQVTVSS	low polyreactivity
QVQLQESGGGLVQAGGSLRLSCAASGFIFARNYIGWYRQAPGKERELVAGIGEGASTNYADSVKGRFTISRDNAKNTVYLQMNSLEPEDTAVYYCAVGDTVLGYHYYWGQGTQVTVSN	low polyreactivity
QVQLVESGGGLVQAGGSLRLSCAASGSTFDSYAMGWYRQAPGKEGELVAAITGGGDTNYADSVKGRFTISRDNAKNTVYLQMNSLKPEDTAVYYCAAYQRRGNYQMDLWGQGTQVTVSS	low polyreactivity
QVQLVESGGGLVQAGGSLRLSCAASGSNFVGNAMGWYRQAPGKERELFAAISSGGSTYYADSVKGRFTISRDNAKNTVYLQLNSLKPEDTAVYYCAAYYVRRYSSRPKDDYWGQGTQVTVSS	low polyreactivity
QVQLVESGGGLVQAGGSLRLSCAGSGYIFAYNTIGWYRQAPGKERELVAAISRSGGSTYYPDSVKGRFTISRDNAKNTVYLQMNSLKPEDTAVYYCAARYSGYRVGQRSFCYWGQGTQVTVSS	high polyreactivity

I need polyreactivity (PSR sort gate) for every entry listed below, if you could help.
1. QVQLVESGGGLVQAGGSLRLICAASGSTSPTNAMGWYRQAPGKEREFVAAIRGSGSSTRYADSVKGRFTISRDNAKNTVYLQMNSLKPEDTAVYYFDYWGQGTQVTVSS
2. QVQLVESGGGLVQAGGSLRLSCAASGSTFSIYAMGWYRKAPGKERELVAAISTDGGSTNYADSVKGRFTISRDNAKNTVYLQMNILKPEDTAVYYCAADTYWYLSPYDYWGQGTQVTVSS

1. low polyreactivity
2. low polyreactivity
